Origin of the recorded values: patent US20250270287A1

- assay-target: T1, growth differentiation factor 8 (GDF-8) (UniProt O14793 267-375)
- T1 construct: also called myostatin
- T1 sequence (looked up): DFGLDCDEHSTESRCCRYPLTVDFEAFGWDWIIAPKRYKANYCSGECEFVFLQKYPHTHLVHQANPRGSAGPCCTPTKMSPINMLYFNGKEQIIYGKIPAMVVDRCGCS
- protocol-notes: SPR (Biacore 8K), Fc protein captured on anti-human IgG, ligand injected
measure: Kd (nM)
Respond with the bare value in nM.

Q: Consider the binder shown here: ActRIIA-B2B4 (SEQ ID NO: 103) chimera-Fc protein (Fc fusion, Tested as chimera-Fc protein; not shown: linker (if any) and Fc domain) GAILGRSETQECLEFNANWEKDRTNQSGLERCYGDKDKRRHCFATWKNISGTIELVKKGCWLDDINCYDRTDCVEKKDSPEVYFCCCEGNMCNEKFSYFPEMEVTQPTS What is its recorded Kd?
A: 0.0672

Q: Given the entry ActRIIA-B4 (SEQ ID NO: 98) chimera-Fc protein (Fc fusion, Tested as chimera-Fc protein; not shown: linker (if any) and Fc domain) GAILGRSETQECLFFNANWEKDRTNQTGVEPCYGDKDKRRHCFATWKNISGTIELVKKGCWLDDINCYDRTDCVEKKDSPEVYFCCCEGNMCNEKFSYFPEMEVTQPTS , report its measured Kd.
A: 0.115

Q: # input binder: ActRIIA-A3 (SEQ ID NO: 106) chimera-Fc protein (Fc fusion, Tested as chimera-Fc protein; not shown: linker (if any) and Fc domain) GAILGRSETQECLFFNANWEKDRTNQTGVEPCEGEQDKRRHCFATWKNISGSIEIVKQGCWLDDINCYDRTDCVEKKDSPEVYFCCCEGNMCNEKFSYFPEMEVTQPTS ; wanted: its Kd
A: 0.0977
